Reference for the values: ChEMBL document CHEMBL6092144

test: Clearance in monkey plasma at 10 mg/kg, po; assay type: ADME, organism-based, Macaca mulatta; settings: rhesus monkey
reportedProperty: CL/F

// lookup CL/F for `O=C(N[C@H]1C[C@@H](c2ccccc2)CN(CC(F)(F)F)C1=O)c1ccc2c(c1)C[C@@]1(C2)C(=O)Nc2ncccc21`
6.1 mL/min/kg

---

assay: Oral bioavailability in monkey at 10 mg/kg; assay type: ADME, organism-based, Macaca mulatta; conditions: rhesus monkey, in vivo
reportedProperty: bioavailability (%)
One number for each entry, in %.

// lookup bioavailability for `O=C(N[C@H]1C[C@@H](c2ccccc2)CN(CC(F)(F)F)C1=O)c1ccc2c(c1)C[C@@]1(C2)C(=O)Nc2ncccc21`
21

---

experiment: Half life in monkey at 2 mg/kg, iv; assay type: ADME, organism-based, Macaca mulatta; details: rhesus monkey, in vivo
reportedProperty: half-life

// lookup half-life for `O=C(N[C@H]1C[C@@H](c2ccccc2)CN(CC(F)(F)F)C1=O)c1ccc2c(c1)C[C@@]1(C2)C(=O)Nc2ncccc21`
1.5 h
